Target: 5-hydroxytryptamine receptor 1A (Rattus norvegicus, UniProt P19327)
Sequence (P19327 whole entry): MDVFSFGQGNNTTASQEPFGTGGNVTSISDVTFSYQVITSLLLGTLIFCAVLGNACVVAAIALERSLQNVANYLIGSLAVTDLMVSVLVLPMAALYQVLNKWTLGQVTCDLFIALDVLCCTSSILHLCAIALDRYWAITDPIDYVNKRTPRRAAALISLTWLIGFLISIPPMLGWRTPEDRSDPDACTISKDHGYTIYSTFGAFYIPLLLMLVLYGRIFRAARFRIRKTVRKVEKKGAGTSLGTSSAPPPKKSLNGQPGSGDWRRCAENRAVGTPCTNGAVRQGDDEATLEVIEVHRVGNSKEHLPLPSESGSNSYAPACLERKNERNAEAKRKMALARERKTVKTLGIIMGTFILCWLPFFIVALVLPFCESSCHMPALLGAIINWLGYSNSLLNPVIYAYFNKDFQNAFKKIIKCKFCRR
Assay: Affinity for 5-hydroxytryptamine 1A receptor site
pKi: −log10 of the molar value.
measurementLabel: pKi

[[record]]
smi = "CCCN(CCC)[C@@H]1CCCc2cccc(O)c2C1"
modifiersign = "="
result = 7.53

[[record]]
smi = "CCCN(CCC)[C@H]1CCCc2cccc(O)c2C1"
modifiersign = "<"
result = 6.52

